Biological target: Butyryl-cholinesterase (Equus caballus)
Construct: butyryl-cholinesterase was from equine serum
Sequence (P81908 whole entry): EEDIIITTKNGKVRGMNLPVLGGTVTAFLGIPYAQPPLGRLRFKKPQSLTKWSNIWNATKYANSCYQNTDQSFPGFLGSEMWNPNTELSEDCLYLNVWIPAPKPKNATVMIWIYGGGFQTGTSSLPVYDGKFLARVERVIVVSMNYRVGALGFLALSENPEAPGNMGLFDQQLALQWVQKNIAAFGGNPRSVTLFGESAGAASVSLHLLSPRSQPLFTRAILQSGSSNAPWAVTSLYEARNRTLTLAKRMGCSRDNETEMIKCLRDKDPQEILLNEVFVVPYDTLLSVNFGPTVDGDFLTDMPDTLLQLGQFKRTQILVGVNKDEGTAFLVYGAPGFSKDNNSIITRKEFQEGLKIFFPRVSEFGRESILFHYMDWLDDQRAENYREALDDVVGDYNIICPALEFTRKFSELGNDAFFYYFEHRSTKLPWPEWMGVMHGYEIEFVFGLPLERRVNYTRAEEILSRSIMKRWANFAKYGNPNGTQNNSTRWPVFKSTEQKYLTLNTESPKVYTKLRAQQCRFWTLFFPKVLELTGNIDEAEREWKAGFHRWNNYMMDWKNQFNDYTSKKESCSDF
Assay: biochemical
Details: Ellman method, 37 °C, PBS pH 7.4, 412 nm; read-out: IC50 Value Butyrylcholinesterase
pIC50: −log10 of the molar value.
Rule: t for pIC50 not less than 5, f for anything less.

INSERT INTO assay_data (molecule, experimental_system, assigned_class) VALUES
  ('C=CC1C2C[C@H]3c4[nH]c5ccccc5c4CCN3C(=O)C2=CO[C@H]1O[C@H]1O[C@H](CO)[C@@H](O)[C@H](O)[C@H]1O (some centres unmarked) [Compound 2, vincosamide]', 'Butyryl-cholinesterase (Equus caballus)', 'f'),
  ('COC(=O)C1=COC(OC2OC(CO)C(O)C(O)C2O)C2C(O)CN3CCc4c([nH]c5ccccc45)C3CC12 (stereo not drawn) [Compound 5, 3α-dihydrocadambine]', 'Butyryl-cholinesterase (Equus caballus)', 'f'),
  ('COC(=O)C1=COC(OC2OC(CO)C(O)C(O)C2O)C2C3CN4CCc5c([nH]c6ccccc56)C4(CC12)O3 (centres unmarked) [Compound 4, cadambine]', 'Butyryl-cholinesterase (Equus caballus)', 'f'),
  ('C=C[C@H]1C(O[C@H]2O[C@H](CO)[C@@H](O)[C@H](O)[C@H]2O)OC=C2C(=O)N3CC[C@]4(C(=O)Nc5ccccc54)[C@H]3C[C@H]21 (stereo partly drawn) [Compound 1, 7-epi-javaniside]', 'Butyryl-cholinesterase (Equus caballus)', 't'),
  ('C=CC1C2C[C@@H]3c4[nH]c5ccccc5c4CCN3C(=O)C2=CO[C@H]1O[C@H]1O[C@H](CO)[C@@H](O)[C@H](O)[C@H]1O (some centres unmarked) [Compound 3, strictosamide]', 'Butyryl-cholinesterase (Equus caballus)', 't');

* * *

Each entry below carries its reported IC50.
Molecular target: Acetyl-cholinesterase (Electrophorus electricus)
Construct: Acetyl-cholinesterase was from electric eel; purchased Sigma-Aldrich; host or cells: electric eel (natural source)
Assay: biochemical
Type: biochemical
Quantity: IC50 (µM)

INSERT INTO measurements (molecule, test_result) VALUES
  ('C=CC1C2C[C@@H]3c4[nH]c5ccccc5c4CCN3C(=O)C2=CO[C@H]1O[C@H]1O[C@H](CO)[C@@H](O)[C@H](O)[C@H]1O (stereo partly drawn) [Compound 3, strictosamide]', 46.6),
  ('C=CC1C2C[C@H]3c4[nH]c5ccccc5c4CCN3C(=O)C2=CO[C@H]1O[C@H]1O[C@H](CO)[C@@H](O)[C@H](O)[C@H]1O (stereo partly drawn) [Compound 2, vincosamide]', 12.4),
  ('COC(=O)C1=COC(OC2OC(CO)C(O)C(O)C2O)C2C3CN4CCc5c([nH]c6ccccc56)C4(CC12)O3 (stereo not drawn)', 26.1);

* * *

Target: Acetyl-cholinesterase (Electrophorus electricus, UniProt O42275)
Construct: Acetyl-cholinesterase was from electric eel; purchased Sigma-Aldrich; host or cells: electric eel (natural source)
Sequence (O42275 24-633): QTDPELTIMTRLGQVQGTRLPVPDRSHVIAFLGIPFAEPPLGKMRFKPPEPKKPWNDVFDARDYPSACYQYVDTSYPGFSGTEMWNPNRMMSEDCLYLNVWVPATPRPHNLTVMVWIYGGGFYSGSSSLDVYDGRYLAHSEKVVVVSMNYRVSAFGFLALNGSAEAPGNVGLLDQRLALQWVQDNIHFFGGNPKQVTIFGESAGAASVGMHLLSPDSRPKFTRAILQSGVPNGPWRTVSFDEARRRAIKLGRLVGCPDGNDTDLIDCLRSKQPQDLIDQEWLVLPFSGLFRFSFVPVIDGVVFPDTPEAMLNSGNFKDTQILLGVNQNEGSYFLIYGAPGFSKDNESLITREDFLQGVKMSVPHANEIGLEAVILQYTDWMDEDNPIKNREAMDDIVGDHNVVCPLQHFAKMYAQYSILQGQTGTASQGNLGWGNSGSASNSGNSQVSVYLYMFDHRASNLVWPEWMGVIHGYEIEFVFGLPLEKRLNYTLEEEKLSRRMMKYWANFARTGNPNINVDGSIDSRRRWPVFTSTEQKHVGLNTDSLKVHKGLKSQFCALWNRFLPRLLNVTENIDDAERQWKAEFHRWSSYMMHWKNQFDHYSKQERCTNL
Test: biochemical
Format: biochemical
Conditions: Ellman method, 37 °C, PBS pH 7.4, 412 nm; read-out: IC50 Value Acetylcholinesterase
pIC50: −log10 of the molar value.
Quantity: pIC50

INSERT INTO results (compound, experimental_system, test_result) VALUES
  ('COC(=O)C1=COC(OC2OC(CO)C(O)C(O)C2O)C2C(O)CN3CCc4c([nH]c5ccccc45)C3CC12 (stereo not drawn) [Compound 5, 3α-dihydrocadambine]', 'Acetyl-cholinesterase (Electrophorus electricus, UniProt O42275)', 4.43),
  ('C=C[C@H]1C(O[C@H]2O[C@H](CO)[C@@H](O)[C@H](O)[C@H]2O)OC=C2C(=O)N3CC[C@]4(C(=O)Nc5ccccc54)[C@H]3C[C@H]21 (stereo partly drawn) [Compound 1, 7-epi-javaniside]', 'Acetyl-cholinesterase (Electrophorus electricus, UniProt O42275)', 5.55);
